Test: Cell-based activity under Prompt Conditions: Cell-based activity under Prompt Conditions. Rat or human NHE3-mediated Na+-dependent H+ antiport was measured using a modification of the pH sensitive dye method originally reported by Paradiso (PNAS USA. 81:7436-7440, 1984). Opossum kidney (OK) cells were obtained from the ATCC and propagated per their instructions. The rat NHE3 gene (GenBank M85300) or the human NHE3 gene (GenBank NM_004174.1) was introduced into OK cells via electroporation, and cells were seeded into 96 well plates and grown overnight. Medium was aspirated from the wells, cells were washed twice with NaCl-HEPES buffer (100 mM NaCl, 50 mM HEPES, 10 mM glucose, 5 mM KCl, 2 mM CaCl2, 1 mM MgCl2, pH 7.4), then incubated for 30 min at room temperature with NH4Cl-HEPES buffer (20 mM NH4Cl, 80 mM NaCl, 50 mM HEPES, 5 mM KCl, 2 mM CaCl2, 1 mM MgCl2, pH 7.4) containing 5 μM bis(acetoxymethyl) 3,3′-(3′,6′-bis(acetoxymethoxy)-5-((acetoxymethoxy)carbonyl)-3-oxo-3H-spiro[isobenzofuran-1,9′-xanthene]-2′,7′-diyl)dipropanoate (BCECF-AM).Cells were washed twice with Ammonium free, Na+-free HEPES (100 mM choline, 50 mM HEPES, 10 mM glucose, 5 mM KCl, 2 mM CaCl2, 1 mM MgCl2, pH 7.4) and incubated in the same buffer for 10 minutes at room temperature to lower intracellular pH. […] Initial rates were plotted as the average 2 or more replicates, and pIC50 values were estimated using GraphPad Prism.
observed_property: IC50 (nM)
Answer format: numeric, nM implied, no suffix.

// solved cases for IC50 follow
[
  {
    "mol_smiles": "CN1Cc2c(Cl)cc(Cl)cc2[C@H](c2cccc(S(=O)(=O)NCCOCCOCCNC(=O)CCC(CCC(=O)NCCOCCOCCNS(=O)(=O)c3cccc([C@@H]4CN(C)Cc5c(Cl)cc(Cl)cc54)c3)(CCC(=O)NCCOCCOCCNS(=O)(=O)c3cccc([C@@H]4CN(C)Cc5c(Cl)cc(Cl)cc54)c3)NC(=O)CCCC(=O)O)c2)C1",
    "numeric_result": 50.1
  },
  {
    "mol_smiles": "CN1CCN(C(=O)NC(CCC(=O)NCCOCCOCCNS(=O)(=O)c2cccc([C@@H]3CN(C)Cc4c(Cl)cc(Cl)cc43)c2)(CCC(=O)NCCOCCOCCNS(=O)(=O)c2cccc([C@@H]3CN(C)Cc4c(Cl)cc(Cl)cc43)c2)CCC(=O)NCCOCCOCCNS(=O)(=O)c2cccc([C@@H]3CN(C)Cc4c(Cl)cc(Cl)cc43)c2)CC1",
    "numeric_result": 126
  },
  {
    "mol_smiles": "COCCNC(=O)CN(C)CC(=O)NCCOCCOCCNC(=O)NCCOCCOCCOCCN1CCN(c2ccc(-c3nc(N=C(N)N)nc4ccc(Cl)cc34)cc2)CC1",
    "numeric_result": 31.6
  }
]

Req: Tell me its IC50 given C/C(=C\c1cc(F)c(Oc2ccc(S(=O)(=O)NCCOCCOCCOCCNC(=O)OCCOCCOCCOC(=O)NCCOCCOCCOCCNS(=O)(=O)c3ccc(Oc4c(F)cc(/C=C(\C)C(=O)N=C(N)N)cc4F)cc3)cc2)c(F)c1)C(=O)N=C(N)N as the entry.
Resp: 31.6

* * *

Assay: Cell-based activity under Prompt Conditions: Cell-based activity under Prompt Conditions. Rat or human NHE3-mediated Na+-dependent H+ antiport was measured using a modification of the pH sensitive dye method originally reported by Paradiso (PNAS USA. 81:7436-7440, 1984). Opossum kidney (OK) cells were obtained from the ATCC and propagated per their instructions. The rat NHE3 gene (GenBank M85300) or the human NHE3 gene (GenBank NM_004174.1) was introduced into OK cells via electroporation, and cells were seeded into 96 well plates and grown overnight. Medium was aspirated from the wells, cells were washed twice with NaCl-HEPES buffer (100 mM NaCl, 50 mM HEPES, 10 mM glucose, 5 mM KCl, 2 mM CaCl2, 1 mM MgCl2, pH 7.4), then incubated for 30 min at room temperature with NH4Cl-HEPES buffer (20 mM NH4Cl, 80 mM NaCl, 50 mM HEPES, 5 mM KCl, 2 mM CaCl2, 1 mM MgCl2, pH 7.4) containing 5 μM bis(acetoxymethyl) 3,3′-(3′,6′-bis(acetoxymethoxy)-5-((acetoxymethoxy)carbonyl)-3-oxo-3H-spiro[isobenzofuran-1,9′-xanthene]-2′,7′-diyl)dipropanoate (BCECF-AM).Cells were washed twice with Ammonium free, Na+-free HEPES (100 mM choline, 50 mM HEPES, 10 mM glucose, 5 mM KCl, 2 mM CaCl2, 1 mM MgCl2, pH 7.4) and incubated in the same buffer for 10 minutes at room temperature to lower intracellular pH. […] Initial rates were plotted as the average 2 or more replicates, and pIC50 values were estimated using GraphPad Prism.
Quick reference: pIC50 of the listed items.
Interpret pIC50 as the negative base-10 log of the concentration measured in mol/L.

Record excerpt, results attached:
[
  {
    "mol_smiles": "CN(C)[C@H]1Cc2c(Cl)cc(Cl)cc2[C@@H]1Oc1ccc(S(=O)(=O)NCCOCCOCCNC(=O)CCC(C)(CCC(=O)NCCOCCOCCNS(=O)(=O)c2ccc(O[C@H]3c4cc(Cl)cc(Cl)c4C[C@@H]3N(C)C)cc2)NC(=O)CCC(=O)O)cc1",
    "pIC50": 8.00
  },
  {
    "mol_smiles": "CN1Cc2c(Cl)cc(Cl)cc2[C@H](c2cccc(S(=O)(=O)NCCOCCOCCNC(=O)NCCN(CCNC(=O)NCCOCCOCCNS(=O)(=O)c3cccc([C@@H]4CN(C)Cc5c(Cl)cc(Cl)cc54)c3)C(=O)NCCOCCOCCNC(=O)c3ccc(-c4ccc(Cl)cc4)cc3)c2)C1",
    "pIC50": 5.80
  },
  {
    "mol_smiles": "CN1Cc2c(Cl)cc(Cl)cc2[C@H](c2cccc(S(=O)(=O)NCCOCCOCCOCCNC(=O)CN(CC(=O)NCCOCCOCCOCCNS(=O)(=O)c3cccc([C@@H]4CN(C)Cc5c(Cl)cc(Cl)cc54)c3)[C@@H]3CCCC[C@H]3N(CC(=O)NCCOCCOCCOCCNS(=O)(=O)c3cccc([C@@H]4CN(C)Cc5c(Cl)cc(Cl)cc54)c3)CC(=O)NCCOCCOCCOCNS(=O)(=O)c3cccc([C@@H]4CN(C)Cc5c(Cl)cc(Cl)cc54)c3)c2)C1",
    "pIC50": 6.50
  },
  {
    "mol_smiles": "CN1Cc2c(Cl)cc(Cl)cc2[C@H](c2cccc(S(=O)(=O)NCCOCCOCCNC(=O)CCC(CCC(=O)NCCOCCOCCNS(=O)(=O)c3cccc([C@@H]4CN(C)Cc5c(Cl)cc(Cl)cc54)c3)(CCC(=O)NCCOCCOCCNS(=O)(=O)c3cccc([C@@H]4CN(C)Cc5c(Cl)cc(Cl)cc54)c3)NC(=O)NCC(=O)O)c2)C1",
    "pIC50": 7.53
  }
]

Req: For the compound CN(C)[C@H]1Cc2c(Cl)cc(Cl)cc2[C@@H]1Oc1ccc(S(=O)(=O)NCCOCCOCCNC(=O)CCC(C)(N)CCC(=O)NCCOCCOCCNS(=O)(=O)c2ccc(O[C@H]3c4cc(Cl)cc(Cl)c4C[C@@H]3N(C)C)cc2)cc1 , give its reported pIC50.
Resp: 8.60

Req: Using known records, supply pIC50 for CCCOCNC(=O)NCCCCNC(=O)NCCOCCOCCNC(=O)NCCOCCOCCN1CCN(c2cccc(-c3nc(N=C(N)N)nc4ccc(Cl)cc34)c2)CC1
Resp: 7.60

Req: Given the compound CN1Cc2c(Cl)cc(Cl)cc2[C@H](c2cccc(S(=O)(=O)NCCOCCOCCOCCNC(=O)CCC(CCC(=O)NCCOCCOCCOCCNS(=O)(=O)c3cccc([C@@H]4CN(C)Cc5c(Cl)cc(Cl)cc54)c3)(CCC(=O)NCCOCCOCCOCCNS(=O)(=O)c3cccc([C@@H]4CN(C)Cc5c(Cl)cc(Cl)cc54)c3)NC(=O)c3ccc(-c4ccc(Cl)cc4)cc3)c2)C1 , write its reported pIC50.
Resp: 5.30

* * *

Reported log10 of IC50 by item:
Experiment: Cell-based activity under Prompt Conditions: Cell-based activity under Prompt Conditions. Rat or human NHE3-mediated Na+-dependent H+ antiport was measured using a modification of the pH sensitive dye method originally reported by Paradiso (PNAS USA. 81:7436-7440, 1984). Opossum kidney (OK) cells were obtained from the ATCC and propagated per their instructions. The rat NHE3 gene (GenBank M85300) or the human NHE3 gene (GenBank NM_004174.1) was introduced into OK cells via electroporation, and cells were seeded into 96 well plates and grown overnight. Medium was aspirated from the wells, cells were washed twice with NaCl-HEPES buffer (100 mM NaCl, 50 mM HEPES, 10 mM glucose, 5 mM KCl, 2 mM CaCl2, 1 mM MgCl2, pH 7.4), then incubated for 30 min at room temperature with NH4Cl-HEPES buffer (20 mM NH4Cl, 80 mM NaCl, 50 mM HEPES, 5 mM KCl, 2 mM CaCl2, 1 mM MgCl2, pH 7.4) containing 5 μM bis(acetoxymethyl) 3,3′-(3′,6′-bis(acetoxymethoxy)-5-((acetoxymethoxy)carbonyl)-3-oxo-3H-spiro[isobenzofuran-1,9′-xanthene]-2′,7′-diyl)dipropanoate (BCECF-AM).Cells were washed twice with Ammonium free, Na+-free HEPES (100 mM choline, 50 mM HEPES, 10 mM glucose, 5 mM KCl, 2 mM CaCl2, 1 mM MgCl2, pH 7.4) and incubated in the same buffer for 10 minutes at room temperature to lower intracellular pH. […] Initial rates were plotted as the average 2 or more replicates, and pIC50 values were estimated using GraphPad Prism.
Values below are the log10 of the recorded IC50, with µM as the unit.

Req: Tell me log10 of IC50 reported for NCCOCCOCCNS(=O)(=O)c1ccc(O[C@H]2c3ccccc3C[C@@H]2N2CCCCC2)cc1
Resp: -0.35

Req: Note log10 of IC50 for the compound shown: CN1Cc2c(Cl)cc(Cl)cc2[C@H](c2cccc(S(=O)(=O)NCCOCCOCCNC(=O)N(C)CCCN(CCCN(C)C(=O)NCCOCCOCCNS(=O)(=O)c3cccc([C@@H]4CN(C)Cc5c(Cl)cc(Cl)cc54)c3)CCCN(C)C(=O)NCCOCCOCCNS(=O)(=O)c3cccc([C@@H]4CN(C)Cc5c(Cl)cc(Cl)cc54)c3)c2)C1
Resp: -0.90

Req: Supply reported log10 of IC50 belonging to this compound: NCCOCCOCCN1CCN(c2cccc(-c3nc(N=C(N)N)nc4ccc(Cl)cc34)c2)CC1
Resp: -0.70

Req: Specify reported log10 of IC50 for the compound shown: CN1Cc2c(Cl)cc(Cl)cc2[C@H](c2cccc(S(=O)(=O)NCCOCCOCCOCCNC(=O)c3cc(C(=O)NCCOCCOCCOCCNS(=O)(=O)c4cccc([C@@H]5CN(C)Cc6c(Cl)cc(Cl)cc65)c4)cc(C(=O)NCCOCCOCCOCCNS(=O)(=O)c4cccc([C@@H]5CN(C)Cc6c(Cl)cc(Cl)cc65)c4)c3)c2)C1
Resp: -0.90

Req: Specify reported log10 of IC50 for the compound shown: CCOCCOCCOCCNC(=O)CN(CCN(CC(=O)O)CC(=O)NCCOCCOCCOCCNS(=O)(=O)c1ccc(O[C@H]2c3ccccc3C[C@@H]2N2CCCCC2)cc1)CC(=O)O
Resp: -1.65

Req: Supply measured log10 of IC50 of CN1Cc2c(Cl)cc(Cl)cc2[C@H](c2cccc(S(=O)(=O)NCCOCCOCCNC(=O)CCC(CCC(=O)NCCOCCOCCNS(=O)(=O)c3cccc([C@@H]4CN(C)Cc5c(Cl)cc(Cl)cc54)c3)(CCC(=O)NCCOCCOCCNS(=O)(=O)c3cccc([C@@H]4CN(C)Cc5c(Cl)cc(Cl)cc54)c3)NC(=O)Cc3nnn[nH]3)c2)C1 in your reply.
Resp: -0.70

Req: // Input: CCCCCCCCNC(=O)N(CCNC(=O)NCCOCCOCCNS(=O)(=O)c1cccc([C@@H]2CN(C)Cc3c(Cl)cc(Cl)cc32)c1)CCNC(=O)NCCOCCOCCNS(=O)(=O)c1cccc([C@@H]2CN(C)Cc3c(Cl)cc(Cl)cc32)c1 . Output its log10 of IC50 only.
Resp: 0.20

Req: Hello, please tell me recorded log10 of IC50 for this one: N=C(N)Nc1nc(-c2cccc(S(=O)(=O)NCCOCCOCCOCCN)c2)c2cc(Cl)ccc2n1
Resp: -0.10
